Listed below: Mean % WT Binding values for each entry.
molecular target: human CD33 G327A (human, UniProt P20138 18-364); test: flow cytometry, alanine scan
Sequence (P20138 18-364 G327A limits assumed): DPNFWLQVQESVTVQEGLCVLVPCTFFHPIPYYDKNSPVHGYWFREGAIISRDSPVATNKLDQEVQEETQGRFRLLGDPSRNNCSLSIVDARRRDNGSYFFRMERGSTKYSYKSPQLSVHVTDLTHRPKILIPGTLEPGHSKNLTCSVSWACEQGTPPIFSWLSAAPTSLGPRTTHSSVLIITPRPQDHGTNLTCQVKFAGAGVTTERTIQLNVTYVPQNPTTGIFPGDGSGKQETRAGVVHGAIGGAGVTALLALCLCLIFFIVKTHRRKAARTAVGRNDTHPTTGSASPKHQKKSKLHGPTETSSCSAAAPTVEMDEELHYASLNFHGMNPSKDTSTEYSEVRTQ
Result Type: Mean % WT Binding

{"Binder": "Refmab #4 (antibody, V domains shown, The alanine scan used IgG or Fab) VH: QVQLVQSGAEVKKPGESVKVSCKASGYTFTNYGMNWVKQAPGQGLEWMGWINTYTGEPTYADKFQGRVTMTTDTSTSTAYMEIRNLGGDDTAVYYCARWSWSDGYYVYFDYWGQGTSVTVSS VL: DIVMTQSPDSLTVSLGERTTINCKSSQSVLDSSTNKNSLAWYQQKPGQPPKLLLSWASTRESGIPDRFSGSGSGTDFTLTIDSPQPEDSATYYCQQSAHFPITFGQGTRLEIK", "Result": "99.1 % of WT"}
{"Binder": "Refmab #1 (antibody, V domains shown, The alanine scan used IgG or Fab; also called hP67.6) VH: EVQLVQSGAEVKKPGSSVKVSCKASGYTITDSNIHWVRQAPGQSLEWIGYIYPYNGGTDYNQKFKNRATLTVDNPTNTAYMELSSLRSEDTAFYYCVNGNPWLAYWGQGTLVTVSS VL: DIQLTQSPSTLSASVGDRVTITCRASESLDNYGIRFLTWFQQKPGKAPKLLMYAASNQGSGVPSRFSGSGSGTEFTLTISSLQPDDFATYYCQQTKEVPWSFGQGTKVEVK", "Result": "88 % of WT"}
{"Binder": "Refmab #3 (antibody, V domains shown, The alanine scan used IgG or Fab) VH: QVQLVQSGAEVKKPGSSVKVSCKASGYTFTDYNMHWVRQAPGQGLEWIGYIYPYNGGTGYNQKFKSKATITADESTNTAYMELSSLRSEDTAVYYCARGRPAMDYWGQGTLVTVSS VL: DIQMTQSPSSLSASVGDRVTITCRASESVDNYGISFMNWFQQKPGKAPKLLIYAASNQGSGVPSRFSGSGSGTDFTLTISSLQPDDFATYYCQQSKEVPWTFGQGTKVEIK", "Result": "132 % of WT"}
{"Binder": "Refmab #2 (antibody, V domains shown, The alanine scan used IgG or Fab) VH: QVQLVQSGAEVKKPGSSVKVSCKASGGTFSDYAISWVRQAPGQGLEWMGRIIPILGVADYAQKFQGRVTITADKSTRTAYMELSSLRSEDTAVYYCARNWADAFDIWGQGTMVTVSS VL: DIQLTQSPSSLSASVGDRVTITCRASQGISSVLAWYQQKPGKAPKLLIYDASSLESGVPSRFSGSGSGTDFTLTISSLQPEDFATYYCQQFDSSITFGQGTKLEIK", "Result": "122 % of WT"}
